Reference for the values: the nanobody polyreactivity screen of Harvey et al. (2022)

test: yeast display, Sf9 membrane polyspecificity reagent, FACS + sequencing; frameworks hold sequencing errors
measured.attribute: polyreactivity (PSR sort gate)

Take a look at these entries with their results.
biopolymer_sequence=QVQHVESGGGLVQAGGSLRLSCAASGRTFGGNAMGWYRQAPGKERELVAAISKSGGRTYYADSVKGRFTISRDNAKNTVYLQMNSLKPEDTAVYYCNKVLSVSQAGGFDYWGQGTQVTVSS measured_attribute="polyreactivity (PSR sort gate)" result="high polyreactivity"
biopolymer_sequence=QVQLVESGGGLVQAGGSLSLSCAASGITFGLYTLGWYRQAPGKERELVASISQSGGSTYYADSVKGRFTNSRDNAKNTVYLQMNSQKQEDTAVYYCNARRRFWDFSTRGYDSWGQGTQGTVSS measured_attribute="polyreactivity (PSR sort gate)" result="high polyreactivity"
biopolymer_sequence=QVQLVDSVGGLVQAGGSLRLSCAASGFTFWYYAMGWYRQAPGKERELVAAISSGGSTYYADSVKGRFTISRDNAKNTVYLQMNSLKPEDTAVYYCAARIGARGRGGKDRVYYWGQGTQVTVSS measured_attribute="polyreactivity (PSR sort gate)" result="high polyreactivity"
biopolymer_sequence=QVQLVESGGGLVQAGGSLRLSCAASGSIFRVYAMGWYRQAPGKERELVAAITSRGGSTYYADSVKGRFTISRDNAKNTVYLQMNSLKQEDTAVYYCAAAYPYRTGRGYYWGQGTQVTVSS measured_attribute="polyreactivity (PSR sort gate)" result="high polyreactivity"

[in] Consider the sequence shown here: QVQLVESGGGLVQAGGSLRLSCAASGFTFRTYAMGWYRQAPGKEREFVAAITTSGGSTYYADSVKGRFTISRDNAKNTVYLQMNSLKPEDTAVYYCAAKKATVVYRMEYWGQGTQVTVSS What is its recorded polyreactivity (PSR sort gate)?
[out] high polyreactivity

[in] Item QVQLVESGGGLVQAGGSLRLSCAASGRTFLPYAMGWYRQPPWKERELVAAISYRGVSTYYADSVKGRFTISRDNAKYSVYLQMNSLKAEDTAVYYCAARSWANYDFWGHGTQVTVSS has what recorded polyreactivity (PSR sort gate)?
[out] high polyreactivity

###

assay: yeast display, Sf9 membrane polyspecificity reagent, FACS + sequencing; frameworks hold sequencing errors
measured.attribute: polyreactivity (PSR sort gate)

biopolymer_sequence=QVKLVESGGGLVQAGGSLRLSCAASGSTFYHNAIGWYRQAPGKERELVARITRGGSTDYADSVKGRFTISRDNAKNTVYLQMNSLKPEDTEVYYCAADIGHFERFYWGQGTQVTVSS measured_attribute="polyreactivity (PSR sort gate)" result="low polyreactivity"
biopolymer_sequence=HVQLVESGGGLVQAGGSLRLSFAASGRIFTHNAMGLYRKAPGKERELVAAITSGGRTTYADSVKGRFTISRDNAKNTVYLQMNSLKPEDTAVYYCNADTGLGSLDFDKRDYWGQGTQVTVSS measured_attribute="polyreactivity (PSR sort gate)" result="low polyreactivity"
biopolymer_sequence=QVQLVESGGGLVQAGGSLRFSCAASGSTFFSYAMGWYRQAPGKERELVATIRGSAGRTYYADSVKGRFTISRDHANYTVYLQMNSLKPEDTAVYYCARRYWPGSAYWIYDYWGQGTQVTVSS measured_attribute="polyreactivity (PSR sort gate)" result="high polyreactivity"
biopolymer_sequence=QVQLVESGGGLVQAGGSLRLSCAASGRTFVGYPMGWCRQAPGKERELVAAIDLSDGSTSYADSVKGRFTISRDHAKNTVYLQMISLTPEHTAVYYCAKTSANVYAGAHDSWGQGTQVTVSS measured_attribute="polyreactivity (PSR sort gate)" result="low polyreactivity"
biopolymer_sequence=QVQIVESGGCLVQAGGSLRLSCAASGGTIGGNAMGWYRQAPGKQREMVAAITDIGGSTYYSDSVKGRFTISRDNAKNTVSLQKNCLKPEDTSVYFCATDEASNQDATYLYYYWGQGTQVTVSS measured_attribute="polyreactivity (PSR sort gate)" result="low polyreactivity"
biopolymer_sequence=QVQLVESGGGLVQAGGSLRLICAASGFIFPVNAMGWYRQAPGKERELVAAITSSGGDTYYADSVKGRFTISRDNAKNTVYLQMNSLKPEDTAVYYFAAEYTQEQEDYDYWGQVTQVTVSS measured_attribute="polyreactivity (PSR sort gate)" result="low polyreactivity"
biopolymer_sequence=QVQLVESGGGLVQAGGSLRLSCAASGRNFGSYAMGWYRQAPGKERELVAGIRSVGSTNYADSVKGRFTISRDNAKNTVYLQMNSLKPEDTAVYYCAARLWHLSYAGQGGDYWGQGTQVTVSS measured_attribute="polyreactivity (PSR sort gate)" result="low polyreactivity"
biopolymer_sequence=QVQLVESGGGLVQAGGSLRLSCAASGNIFILNAMGWYRQAPGKERELVAAISTTGGSTYYADSVKGRFTISRDNAKNTVYLQMNSLKPEDTAVYYCAAYTYRYSTFYYWGQGTQVTVSS measured_attribute="polyreactivity (PSR sort gate)" result="high polyreactivity"

[in] polyreactivity (PSR sort gate) lookup needed for QVQLVESGGGLVQAGVSLRLSCVASGLTQPYAMGWYRQAPGKESELVAGISWRGASTYYADSVKGRFTISRDNAKNTVYLQMNSLKPEDTAVSYCAARSTIQRRGYYGYRVGRSEYGYWGQGTQVTVSS , thanks.
[out] low polyreactivity

[in] Which polyreactivity (PSR sort gate) value is on record for QVQLVESGGGLVQAGGSLRLICAASGSTFYPNAIGWYRQAPGKERELVAAISYTGGRTYYADSVKGRFTISRDNAKNTVYLQMNSLKPEDTAVYYCAVLVVGSTTQDEPYFCGVEHDYWGQGTQVTVSS ?
[out] low polyreactivity

[in] Entry QVQLVESGGGLVQAGGSLRLSCAASGSTFWYYAMGWYRQAPGKERELVAAITRDGTTYYADSVKGRFTISRDNAKNTVYLQMNSLKPEDTAVYYCAVDIDNWSEYDYWGQGTQVTVSS has what polyreactivity (PSR sort gate)?
[out] low polyreactivity

[in] Value lookup for polyreactivity (PSR sort gate); key = QDQHVESGGGVVQARGSLRLICDASGFTIQRSAMGWYRQAPGKERELVAAISSGGSTYYADSVKGRFTFSRDNAKNTVYLQMNSLKPEDTAVYYCAARPIPRYYGKFWRVDYWGQGTQVTVSS
[out] high polyreactivity

[in] Would you kindly share the measured polyreactivity (PSR sort gate) for QVQLVESGGGLVQAGGSLRLSCAASGRIFQVNDKGFYIQAPGKETELVASITYSGGSTYYADSVKGRFTISRDNAKITVYLQMNSLKPEDTAVYYCNKQNYVWVLVIYYYWGQGTQVTVSS ?
[out] low polyreactivity
